Origin of the recorded values: PubChem BioAssay AID1159580

- METHOD SUMMARY: chemical genetic growth profiling, strain panel (AID 1159580);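 further: tested at 20 µM; growth read once vehicle control cultures reached saturation at 30 °C; lower values mean less growth of the strain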
- MEASUREMENT SETUP: S. cerevisiae deletion strains, growth OD, locus YJL187C, strain SWE1 (second series)
Screen size: about 5,500 compounds; about 2,000 (36%) were called active. Roughly 18% stayed inconclusive and do not appear here. No stated cut-off is given here; in the data, active means normalized growth mostly below about 0.91 (no sharp cut-off); inconclusive means no clear call, values can overlap the other calls; inactive means mostly above about 0.92. Some of the results follow.
Permitted responses: TRUE = active, FALSE = inactive

Record excerpt, results attached:
COMPOUND	CLASSIFICATION
CN(C)C(=S)SSC(=S)N(C)C	TRUE
COc1ccc2c(C)cc(=O)oc2c1	FALSE
COP(=O)(OC)OC=C(Cl)Cl	FALSE
ClC1=C(Cl)C2(Cl)C3C4C=CC(C4)C3C1(Cl)C2(Cl)Cl (stereo not drawn)	FALSE

Assay outcome for CCCCCCCCCCCCCCCC[N+](C)(C)C : what was it?
TRUE

Name the outcome recorded for C[C@]12CCC(=O)C=C1CCC1C2CC[C@@]2(C)C1CC[C@@H]2O (stereo partly drawn) in the assay.
FALSE

Which outcome did this test record for the compound CCOC(=O)CCC(=O)O[C@H]1[C@H](O[C@@H]2[C@@H](C)[C@H](O[C@H]3C[C@@](C)(OC)[C@@H](O)[C@H](C)O3)[C@@H](C)C(=O)O[C@H](CC)[C@@](C)(O)[C@H](O)[C@@H](C)C(=O)[C@H](C)C[C@@]2(C)O)O[C@H](C)C[C@@H]1N(C)C ?
FALSE
